Every entry's value here was drawn from patent US20180110824A1.

# system.under.test: UniProt:O43193
# Sequence (O43193 whole entry, species assumed): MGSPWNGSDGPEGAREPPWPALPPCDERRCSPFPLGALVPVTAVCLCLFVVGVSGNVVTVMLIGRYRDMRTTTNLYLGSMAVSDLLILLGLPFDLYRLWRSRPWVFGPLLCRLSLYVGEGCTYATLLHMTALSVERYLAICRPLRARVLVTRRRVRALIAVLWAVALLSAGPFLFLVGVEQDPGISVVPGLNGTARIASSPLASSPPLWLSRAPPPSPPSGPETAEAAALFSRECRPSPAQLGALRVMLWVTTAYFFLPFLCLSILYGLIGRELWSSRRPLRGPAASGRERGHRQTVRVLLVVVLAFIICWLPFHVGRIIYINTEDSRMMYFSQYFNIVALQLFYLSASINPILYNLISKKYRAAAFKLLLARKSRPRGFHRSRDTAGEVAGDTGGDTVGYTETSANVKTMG
# procedure.details: Selectivity for the ghrelin receptor versus the motilin receptor
# Type: binding
Kindly state Selectivity for each of the entries shown.

These solved cases illustrate the format of a correct answer.
INSERT INTO measurements (compound, result) VALUES
  ('CC(C)C1NCCOc2ccccc2C=CCNC(=O)C(Cc2ccccc2)NC(=O)C(C)N(C)C1=O (stereo not shown)', '>1700/1'),
  ('CCC(C)C1NCCOc2ccccc2C=CCNC(=O)C(Cc2ccccc2)NC(=O)C(C)N(C)C1=O (stereo not shown)', '>3300/1'),
  ('C[C@@H]1C(=O)N[C@H](Cc2ccc(Cl)cc2Cl)C(=O)NCCCc2ccccc2OCCN[C@@H](C2CC2)C(=O)N1C', '>5500/1');

Please give Selectivity, item by item, for the list that follows.
1. CC(C)C[C@@H]1NCCOc2ccccc2/C=C/CNC(=O)[C@H](Cc2cccc(Cl)c2)NC(=O)C2(CCCC2)NC1=O
2. CCC(C)C1NCCOc2ccccc2CCCNC(=O)C(Cc2ccc(F)cc2)NC(=O)C(C)N(C)C1=O (stereo not shown)
3. CCCC1NCCOc2ccccc2CCCNC(=O)C(Cc2ccccc2)NC(=O)C(C)N(C)C1=O (stereo not shown)
4. C[C@@H]1C(=O)N[C@H](Cc2ccc(F)cc2)C(=O)NCCCc2ccc(F)cc2OCCN[C@@H](C2CC2)C(=O)N1C
5. O=C1NC/C=C/c2ccccc2OCCNC2(CCCC2)C(=O)NC2(CCCC2)C(=O)N[C@H]1Cc1ccccc1
6. CCC(C)[C@@H]1NCCOc2ccccc2CCCNC(=O)[C@@H](Cc2ccc(OC)cc2)NC(=O)[C@@H](C)N(C)C1=O (stereo partly shown)

["1078/1", ">7700/1", "3012/1", "2500/1", "222/1", ">7100/1"]

# map each compound to its Selectivity
1. CCC[C@@H]1NCCOc2ccccc2CCCNC(=O)[C@@H](Cc2c[nH]c3ccccc23)NC(=O)CN(C)C1=O
2. CC[C@H](C)[C@@H]1NCCCCCCCCNC(=O)[C@H](Cc2cccc(Cl)c2)NC(=O)C2(CCCC2)NC1=O
3. CCCC1NCCOc2ccccc2C=CCNC(=O)C(Cc2ccccc2)NC(=O)C(C)N(C)C1=O (stereo not shown)
4. CCC(C)C1NCCOc2ccccc2CCCNC(=O)C(Cc2ccccc2)NC(=O)C(C)N(CC)C1=O (stereo not shown)
5. CCC[C@@H]1NCCOc2ccccc2CCCNC(=O)[C@@H](Cc2ccccc2)NC(=O)CN(C)C1=O
6. CCC(C)C1NCCOc2ccccc2CCCNC(=O)C(Cc2ccccc2)NC(=O)C(C)N(C)C1=O (stereo not shown) [compound 42]

["71/1", "35/1", "3400/1", "3700/1", "304/1", "4300/1"]

---

# system.under.test: human growth hormone secretagogue receptor (hGHS-R1a) (Homo sapiens, UniProt Q92847)
# Construct: purchased PerkinElmer BioSignal #RBHGHSM; host or cells: HEK-293, stably transfected
# Sequence (Q92847 whole entry): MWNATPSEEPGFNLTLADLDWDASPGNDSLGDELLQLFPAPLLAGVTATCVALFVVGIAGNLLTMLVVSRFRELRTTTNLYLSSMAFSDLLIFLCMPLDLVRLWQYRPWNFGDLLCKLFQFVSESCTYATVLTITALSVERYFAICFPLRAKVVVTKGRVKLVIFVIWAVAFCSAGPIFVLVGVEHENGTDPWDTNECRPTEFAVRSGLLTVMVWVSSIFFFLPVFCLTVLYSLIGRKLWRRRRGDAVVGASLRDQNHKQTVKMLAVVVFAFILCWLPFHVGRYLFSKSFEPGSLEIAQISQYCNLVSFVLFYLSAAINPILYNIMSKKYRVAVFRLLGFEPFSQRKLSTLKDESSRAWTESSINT
# procedure.details: Competitive radioligand binding assay (ghrelin receptor), [125I]-ghrelin displacement on GHS-R/HEK 293 membranes
# test.context: Table 3E; read-out: Ki
pKi: −log10 of the molar value.
property: pKi

Recorded pKi, per entry:
INSERT INTO assay_data (compound, property, result) VALUES
  ('CC(C)C[C@@H]1NCCOc2ccccc2CCCNC(=O)[C@H](Cc2ccccc2)NC(=O)[C@H]2CCCN2C1=O [compound 223]', 'pKi', '5.00 to 6.00'),
  ('CC(C)C[C@@H]1NCCOc2ccccc2CCCNC(=O)[C@H](Cc2ccccc2)NC(=O)[C@@H]2CCCN2C1=O [compound 222]', 'pKi', '5.00 to 6.00'),
  ('C[C@@H]1C(=O)N[C@H](Cc2ccccc2)C(=O)NCCCc2ccccc2OCCN2CCCC[C@H]2C(=O)N1C [compound 226]', 'pKi', '7.00 to 8.00'),
  ('C[C@@H]1C(=O)N[C@H](Cc2ccccc2)C(=O)NCCCc2ccccc2OCCN2CCC[C@H]2C(=O)N1C [compound 225]', 'pKi', '6.00 to 7.00'),
  ('CCC[C@@H]1NCCOc2ccccc2CCCNC(=O)[C@@H](Cc2ccccc2)NC(=O)[C@H]2CCCN2C1=O [Compound 221]', 'pKi', '6.00 to 7.00');

Now look at this entry.
Endpoint output: pKi of CCC[C@@H]1NCCOc2ccccc2CCCNC(=O)[C@@H](Cc2ccccc2)NC(=O)[C@@H]2CCCN2C1=O [compound 220] . Value? 5.00 to 6.00

---

Exercise: for every item that follows, state its recorded Ki.
# system.under.test: human growth hormone secretagogue receptor (hGHS-R1a) (Homo sapiens)
# Construct: purchased PerkinElmer BioSignal #RBHGHSM; host or cells: HEK-293, stably transfected
# procedure.details: Competitive radioligand binding assay (ghrelin receptor), [125I]-ghrelin displacement on GHS-R/HEK 293 membranes
# test.context: Table 3B; binding activity at the human ghrelin receptor; read-out: Ki

Check out these entries, answers already filled in.
INSERT INTO results (compound, result) VALUES
  ('C[C@@H]1C(=O)N[C@H](Cc2cc(F)cc(F)c2)C(=O)NCCCc2ccccc2OCCN[C@@H](C2CC2)C(=O)N1C', '10 to 100 nM'),
  ('CC[C@H](C)[C@@H]1NCCOc2cccnc2CCCNC(=O)[C@H](Cc2cccc(Cl)c2)NC(=O)C2(CCCC2)NC1=O', '100 to 1000 nM'),
  ('CC[C@H](C)[C@@H]1NCCOc2ccccc2C(C)(C)CCNC(=O)[C@H](Cc2cccc(Cl)c2)NC(=O)C2(CCCC2)NC1=O', '100 to 1000 nM');

Please look at the items below and tell me Ki for each one, in order.
1. CC[C@H](C)[C@@H]1NCCCCCCCNC(=O)[C@H](Cc2cccc(Cl)c2)NC(=O)C2(CCCC2)NC1=O
2. N#Cc1ccccc1C[C@@H]1NCCOc2ccccc2/C=C/CNC(=O)[C@H](Cc2cccc(Cl)c2)NC(=O)C2(CCCC2)NC1=O
3. C[C@@H]1C(=O)N[C@H](Cc2ccc(I)cc2)C(=O)NCCCc2ccccc2OCCN[C@@H](C2CC2)C(=O)N1C

["100 to 1000 nM", "100 to 1000 nM", "0.1 to 10 nM"]

Quick batch: Ki for everything below.
1. C[C@@H]1C(=O)N[C@H](Cc2cccc(F)c2)C(=O)NCCCc2ccccc2OCCN[C@@H](C2CC2)C(=O)N1C
2. CC1CNC(=O)[C@@H](Cc2ccc(F)cc2)NC(=O)[C@@H](C)N(C)C(=O)[C@H](C2CC2)NCCOc2ccccc2C1 (some centres unmarked)

1. 10 to 100 nM
2. 100 to 1000 nM

Count: 2. Required value per item: Ki.
1. C[C@@H]1C(=O)N[C@H](Cc2ccc(F)cc2)C(=O)NCCC=CCOCCN[C@@H](C2CC2)C(=O)N1C
2. CCC(C)[C@@H]1NCCOc2ccccc2/C=C/CNC(=O)[C@H](Cc2cccc(Cl)c2)NC(=O)C2(CCCC2)NC1=O (some centres unmarked) [345a]

1: 100 to 1000 nM; 2: 100 to 1000 nM

Each compound below has a reported value. Please supply its Ki.
1. CCC(C)C1NCCCc2ccccc2C=CCCNC(=O)C(Cc2cccc(Cl)c2)NC(=O)C2(CCCC2)NC1=O (centres unmarked)
2. C[C@@H]1C(=O)N[C@H](Cc2cc(F)c(F)c(F)c2)C(=O)NCCCc2ccccc2OCCN[C@@H](C2CC2)C(=O)N1C

100 to 1000 nM
0.1 to 10 nM

Provide Ki for all items below, preserving their order.
1. CC1CCNC(=O)[C@@H](Cc2ccc(F)cc2)NC(=O)[C@@H](C)N(C)C(=O)[C@H](C2CC2)NCCOc2ccccc21 (some centres unmarked)
2. C[C@@H]1C(=O)N[C@H](Cc2ccc(O)c(C(C)(C)C)c2)C(=O)NCCCc2ccccc2OCCN[C@@H](C2CC2)C(=O)N1C
3. CC[C@H](C)[C@@H]1NCCOCC=CCCNC(=O)[C@H](Cc2cccc(Cl)c2)NC(=O)C2(CCCC2)NC1=O
4. O=C1NC/C=C/c2ccccc2OCCN[C@@H](C2CC2)C(=O)NC2(CCCC2)C(=O)N[C@H]1Cc1cccc(Cl)c1

["100 to 1000 nM", "10 to 100 nM", "100 to 1000 nM", "100 to 1000 nM"]

For every record below, what is its Ki?
1. C[C@@H]1C(=O)N[C@H](Cc2ccc(F)cc2)C(=O)NCCCc2ccccc2OCCN[C@@H](CN)C(=O)N1C
2. C[C@@H]1C(=O)N[C@H](Cc2ccc(F)cc2)C(=O)NCCCc2ccccc2OCCN[C@@H](CCCN)C(=O)N1C
3. CC[C@H](C)[C@@H]1NCCCCCCNC(=O)[C@H](Cc2cccc(Cl)c2)NC(=O)C2(CCCC2)NC1=O
4. COC[C@@H]1NCCOc2ccccc2/C=C/CNC(=O)[C@H](Cc2cccc(Cl)c2)NC(=O)C2(CCCC2)NC1=O
5. CC1C(=O)NC(Cc2ccc(F)cc2)C(=O)NCC2CC2c2ccccc2OCCNC(C2CC2)C(=O)N1C (centres unmarked)
6. C[C@@H]1C(=O)N[C@H](Cc2ccc(Cl)cc2Cl)C(=O)NCCCc2ccccc2OCCN[C@@H](C2CC2)C(=O)N1C

100 to 1000 nM
100 to 1000 nM
100 to 1000 nM
100 to 1000 nM
10 to 100 nM
0.1 to 10 nM

Would you be so kind as to report Ki for each listed record?
1. C[C@@H]1C(=O)N[C@H](Cc2ccc(F)cc2)C(=O)NCCCCCOCCN[C@@H](C2CC2)C(=O)N1C
2. CC[C@H](C)[C@@H]1NCCOc2ccc(Cl)cc2CCCNC(=O)[C@H](Cc2cccc(Cl)c2)NC(=O)C2(CCCC2)NC1=O

1: 100 to 1000 nM; 2: 100 to 1000 nM

For every item below, please supply its Ki.
1. CC[C@H](C)[C@@H]1NCCCc2ccccc2CCCCNC(=O)[C@H](Cc2cccc(Cl)c2)NC(=O)C2(CCCC2)NC1=O
2. CCC(C)[C@@H]1NCCCc2ccccc2/C=C/CNC(=O)[C@@H](Cc2ccc(F)cc2)NC(=O)[C@@H](C)N(C)C1=O (some centres unmarked) [353a]

["10 to 100 nM", "10 to 100 nM"]
